- Tested on: ANBL-6 cells
- measurementProtocol: Anti-proliferation assay (ATPLite, 72 h), ANBL-6
- Format: cell-based
- experimentalParameters: in combination with CGS-21680
quantityKind: synergy score
Reply with the value as a number alone.

Check out these entries, answers already filled in.
Nc1cccc2c1CN(C1CCC(=O)NC1=O)C2=O (centres unmarked) [lenalidomide] : 1.45
O=C(Nc1c(Cl)cncc1Cl)c1ccc(OC(F)F)c(OCC2CC2)c1 : 3.73
COc1cccc2c1C(=O)c1c(O)c3c(c(O)c1C2=O)C[C@@](O)(C(=O)CO)C[C@@H]3O[C@H]1C[C@H](N)[C@H](O)[C@H](C)O1 : 2.54
COc1cc2c(cc1OC)-c1cc(=Nc3c(C)cc(C)cc3C)n(C)c(=O)n1CC2 : 4.55

Then this compound:
Fill blank: measured synergy score of the compound C[C@@H]1C[C@H]2[C@@H]3CCC4=CC(=O)C=C[C@]4(C)[C@@]3(F)[C@@H](O)C[C@]2(C)[C@@]1(O)C(=O)CO is ____.
1.25
